- target_system: recombinant soluble homotrimeric HA of A/Vietnam/1203/04 (H5N1) (Influenza A virus A/VietNam/1203/2004(H5N1))
- assay_remarks: trimeric HA microarray, transfection supernatant set 5
- condition_details: remark: other sources report otherwise
# binning rule on Trimeric HA Binding: RLU: I (below 40000 RLU), II (40000 RLU to below 50000 RLU), III (50000 RLU or more)

Please indicate the class for TCN-540 (5060_F05) (antibody, V domains shown) VH: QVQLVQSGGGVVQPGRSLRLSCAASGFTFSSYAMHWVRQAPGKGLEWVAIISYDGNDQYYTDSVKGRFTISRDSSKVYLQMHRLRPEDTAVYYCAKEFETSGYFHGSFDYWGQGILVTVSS VL: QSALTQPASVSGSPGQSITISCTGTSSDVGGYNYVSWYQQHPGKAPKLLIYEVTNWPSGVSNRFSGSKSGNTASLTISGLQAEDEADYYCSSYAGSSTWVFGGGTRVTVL based on its Trimeric HA Binding: RLU. II

Then TCN-542 (5079_A16) (antibody, V domains shown) VH: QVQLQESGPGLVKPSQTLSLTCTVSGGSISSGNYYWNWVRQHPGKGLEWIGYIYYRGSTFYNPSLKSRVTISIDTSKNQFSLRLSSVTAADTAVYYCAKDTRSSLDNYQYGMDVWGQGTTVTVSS VL: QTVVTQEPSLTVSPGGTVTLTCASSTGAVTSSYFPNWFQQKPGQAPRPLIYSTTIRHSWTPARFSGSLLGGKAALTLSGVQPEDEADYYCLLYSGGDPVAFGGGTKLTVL ? I

Another: TCN-546 (5089_L08) (antibody, V domains shown) VH: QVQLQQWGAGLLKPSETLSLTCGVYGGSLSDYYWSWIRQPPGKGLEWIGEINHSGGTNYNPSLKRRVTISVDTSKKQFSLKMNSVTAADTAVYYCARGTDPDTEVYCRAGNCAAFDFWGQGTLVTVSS VL: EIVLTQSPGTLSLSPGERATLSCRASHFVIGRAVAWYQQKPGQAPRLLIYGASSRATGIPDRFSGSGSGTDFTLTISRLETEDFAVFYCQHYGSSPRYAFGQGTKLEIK II

Now this one: TCN-545 (5082_I15) (antibody, V domains shown) VH: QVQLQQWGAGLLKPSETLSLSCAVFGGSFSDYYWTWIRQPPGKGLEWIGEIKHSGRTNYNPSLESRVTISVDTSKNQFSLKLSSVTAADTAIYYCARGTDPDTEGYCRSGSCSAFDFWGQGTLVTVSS VL: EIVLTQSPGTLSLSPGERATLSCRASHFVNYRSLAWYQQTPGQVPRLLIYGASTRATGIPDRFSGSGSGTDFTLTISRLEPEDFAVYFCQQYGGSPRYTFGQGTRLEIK II

All figures here come from patent US20150086555A1.
